system: Staphylococcus aureus ATCC 29213; format: cell-based; details: ATCC 29213
Where a SMILES comes first, the peptide text is derived from it. [ ]: non-standard residue; d: D form. The star is where a group is joined. Cha = N[C@@H](CC1CCCCC1)C(=O)O; Decanoyl = CCCCCCCCCC(=O)*; Heptanoyl = CCCCCCC(=O)*; Octanoyl = CCCCCCCC(=O)*; Dab = NCC[C@H](N)C(=O)O
READOUT_NAME: Minimum inhibitory concentration

**Query** # input compound: CCCCCCCC(=O)N[C@@H](CCN)C(=O)N[C@H](C(=O)N[C@@H](CCN)C(=O)N[C@H](Cc1ccccc1)C(=O)N[C@@H](CC(C)C)C(=O)N[C@@H](CCN)C(=O)N[C@@H](C(=O)N[C@@H](CC(C)C)C(=O)N[C@@H](CCN)C(N)=O)C(C)C)[C@@H](C)CC [Analogue 9] (Octanoyl-[Dab]I[Dab][dF]L[Dab][dV]L[Dab]-NH2) ; wanted: its Minimum inhibitory concentration
**Result** >32 µg/mL

**Query** Also need CCCCCCCCCC(=O)N[C@@H](CCN)C(=O)N[C@H](C(=O)N[C@@H](CCN)C(=O)N[C@H](Cc1ccccc1)C(=O)N[C@@H](CC(C)C)C(=O)N[C@@H](CCN)C(=O)N[C@@H](C(=O)N[C@@H](CC(C)C)C(=O)N[C@@H](CO)C(N)=O)C(C)C)[C@@H](C)CC [Analogue 12] (Decanoyl-[Dab]I[Dab][dF]L[Dab][dV]LS-NH2) , thanks.
**Result** 2 to 4 µg/mL

**Query** Continue with CCCCCCC(=O)N[C@@H](CCN)C(=O)N[C@@H](Cc1ccccc1)C(=O)N[C@@H](CCN)C(=O)N[C@H](Cc1ccccc1)C(=O)N[C@@H](CC(C)C)C(=O)N[C@@H](CCN)C(=O)N[C@H](CC(C)C)C(=O)N[C@@H](CC(C)C)C(=O)N[C@@H](CO)C(N)=O [Analogue 6] (Heptanoyl-[Dab]F[Dab][dF]L[Dab][dL]LS-NH2)
**Result** 16 to 32 µg/mL

**Query** Try this compound next: CCCCCCCC(=O)N[C@@H](CCN)C(=O)N[C@H](C(=O)N[C@@H](CCN)C(=O)N[C@H](Cc1ccccc1)C(=O)N[C@@H](CC(C)C)C(=O)N[C@@H](CCN)C(=O)N[C@@H](C(=O)N[C@@H](CC(C)C)C(=O)N[C@@H](CO)C(N)=O)C(C)C)[C@@H](C)CC [Analogue 8, C8-Pat] (Octanoyl-[Dab]I[Dab][dF]L[Dab][dV]LS-NH2)
**Result** 8 to 16 µg/mL

**Query** Continue with CC[C@H](C)[C@H](NC(=O)[C@H](CCN)NC(=O)[C@@H](N)CC1CCCCC1)C(=O)N[C@@H](CCN)C(=O)N[C@H](Cc1ccccc1)C(=O)N[C@@H](CC(C)C)C(=O)N[C@@H](CCN)C(=O)N[C@@H](C(=O)N[C@@H](CC(C)C)C(=O)N[C@@H](CO)C(N)=O)C(C)C [Analogue 16] (H-[Cha][Dab]I[Dab][dF]L[Dab][dV]LS-NH2)
**Result** >32 µg/mL

**Query** Likewise for CCCCCCC(=O)N[C@@H](CCN)C(=O)N[C@H](C(=O)N[C@@H](CCN)C(=O)N[C@H](Cc1ccccc1)C(=O)N[C@@H](CC(C)C)C(=O)N[C@@H](CCN)C(=O)N[C@H](CC(C)C)C(=O)N[C@@H](CC(C)C)C(=O)N[C@@H](CO)C(N)=O)[C@@H](C)CC [Analogue 5] (Heptanoyl-[Dab]I[Dab][dF]L[Dab][dL]LS-NH2) ?
**Result** 16 to 32 µg/mL
